Data provenance: ChEMBL document CHEMBL5357058

biological target: Transient receptor potential cation channel subfamily A member 1 (Homo sapiens, UniProt O75762); experiment: Inhibition of human TRPA1 overexpressed in HEK293 cells assessed as reduction in AITC-induced calcium mobilization preincubated for 5 mins followed by AITC addition by FLIPR assay
Sequence (O75762 whole entry): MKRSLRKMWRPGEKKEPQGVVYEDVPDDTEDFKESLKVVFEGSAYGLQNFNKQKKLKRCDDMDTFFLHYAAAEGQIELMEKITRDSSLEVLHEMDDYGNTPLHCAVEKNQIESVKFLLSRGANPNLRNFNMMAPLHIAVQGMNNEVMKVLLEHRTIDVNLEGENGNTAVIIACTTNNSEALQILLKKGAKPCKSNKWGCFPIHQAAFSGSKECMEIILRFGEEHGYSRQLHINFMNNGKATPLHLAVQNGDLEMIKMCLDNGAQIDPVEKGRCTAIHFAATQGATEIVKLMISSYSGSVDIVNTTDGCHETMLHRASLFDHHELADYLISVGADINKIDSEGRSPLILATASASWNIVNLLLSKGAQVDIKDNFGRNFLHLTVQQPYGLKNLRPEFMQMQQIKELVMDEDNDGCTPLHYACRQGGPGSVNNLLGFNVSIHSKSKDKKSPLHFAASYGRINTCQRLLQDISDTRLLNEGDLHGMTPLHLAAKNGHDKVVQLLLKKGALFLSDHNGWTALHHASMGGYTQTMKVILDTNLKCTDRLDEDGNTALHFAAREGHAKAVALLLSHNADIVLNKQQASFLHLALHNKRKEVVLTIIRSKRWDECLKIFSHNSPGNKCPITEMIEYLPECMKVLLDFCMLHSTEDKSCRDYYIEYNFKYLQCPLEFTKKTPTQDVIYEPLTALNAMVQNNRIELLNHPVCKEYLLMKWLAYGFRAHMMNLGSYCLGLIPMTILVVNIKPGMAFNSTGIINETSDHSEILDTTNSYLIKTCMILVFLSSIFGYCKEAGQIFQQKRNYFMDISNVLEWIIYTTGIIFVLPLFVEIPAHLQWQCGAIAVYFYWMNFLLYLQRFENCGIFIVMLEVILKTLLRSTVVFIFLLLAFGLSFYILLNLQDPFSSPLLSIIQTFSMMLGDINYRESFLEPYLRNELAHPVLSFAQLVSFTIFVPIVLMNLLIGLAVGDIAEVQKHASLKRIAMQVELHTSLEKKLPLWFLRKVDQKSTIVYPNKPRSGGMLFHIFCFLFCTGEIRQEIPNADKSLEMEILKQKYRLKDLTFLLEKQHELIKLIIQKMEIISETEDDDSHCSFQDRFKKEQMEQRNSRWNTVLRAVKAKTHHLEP
pIC50: −log10 of the molar value.
Parameter pIC50: see the listing below.

Below, 3 compounds whose answers are already recorded.
                                   compound  result
0  CC1=C(CC/C(C)=C/CC[C@@]2(C)CC[C@@H]([C@H](C)C(=O)O)OO2)C(C)(C)CCC1 [EPIMUQUBILIN A]    5.32
1  COC(=O)[C@H](C)[C@H]1CC[C@@](C)(CCC2=C(C)C(O)CCC2(C)C)OO1 (mixture of isomers)  < 4.52
2  C=C1CCCC(C)(C)C1CC[C@]1(C)CC[C@@H]([C@@H](C)C(=O)OC)OO1 (some centres undefined)  < 4.52

Challenge: Would you kindly share the measured pIC50 for CC1=C(CC[C@]2(C)CC[C@H]([C@@H](C)C(=O)O)OO2)C(C)(C)CCC1 ?
Response given: < 4.52

###

Parameter IC50: see the listing below.
biological target: UniProt O75762; assay: Inhibition of human TRPA1 overexpressed in HEK293 cells assessed as reduction in AITC-induced calcium mobilization preincubated for 5 mins followed by AITC addition by FLIPR assay; type: cell-based
Express the result in µM but write the number alone.

Below, 4 compounds whose answers are already recorded.
                                   compound  quantity_measured  numeric_value
0  CC1=C(CC/C(C)=C/CC[C@]2(C)CC[C@@H]([C@H](C)C(=O)O)OO2)C(C)(C)CCC1               IC50            5.6
1  C=C1CCC[C@H]2[C@](C)(CC[C@@]3(C)CC[C@H]([C@@H](C)C(=O)O)OO3)[C@@H](C)CC[C@]12C               IC50              2
2  C=C1CCCC(C)(C)C1CC[C@]1(C)CC[C@H]([C@@H](C)C(=O)OC)OO1 (some centres not stated)               IC50           18.9
3  COC(=O)[C@H](C)[C@@H]1CC[C@@](C)(CCC2=C(C)CCCC2(C)C)OO1               IC50           29.3

Kindly review the next compound as well.
Challenge: Would you kindly share the measured IC50 for C=C1CCC[C@H]2[C@](C)(CC[C@@]3(C)CC[C@H]([C@@H](C)C(=O)OC)OO3)[C@@H](C)CC[C@]12C ?
Response given: 13.5
